biological target: Wee-1 kinase (Homo sapiens (Human), UniProt P30291); experiment: Measurement of Wee-1 kinase activity (ADP-Glo); format: biochemical; conditions: read-out: Wee-1 IC50 activity
Sequence (P30291 whole entry): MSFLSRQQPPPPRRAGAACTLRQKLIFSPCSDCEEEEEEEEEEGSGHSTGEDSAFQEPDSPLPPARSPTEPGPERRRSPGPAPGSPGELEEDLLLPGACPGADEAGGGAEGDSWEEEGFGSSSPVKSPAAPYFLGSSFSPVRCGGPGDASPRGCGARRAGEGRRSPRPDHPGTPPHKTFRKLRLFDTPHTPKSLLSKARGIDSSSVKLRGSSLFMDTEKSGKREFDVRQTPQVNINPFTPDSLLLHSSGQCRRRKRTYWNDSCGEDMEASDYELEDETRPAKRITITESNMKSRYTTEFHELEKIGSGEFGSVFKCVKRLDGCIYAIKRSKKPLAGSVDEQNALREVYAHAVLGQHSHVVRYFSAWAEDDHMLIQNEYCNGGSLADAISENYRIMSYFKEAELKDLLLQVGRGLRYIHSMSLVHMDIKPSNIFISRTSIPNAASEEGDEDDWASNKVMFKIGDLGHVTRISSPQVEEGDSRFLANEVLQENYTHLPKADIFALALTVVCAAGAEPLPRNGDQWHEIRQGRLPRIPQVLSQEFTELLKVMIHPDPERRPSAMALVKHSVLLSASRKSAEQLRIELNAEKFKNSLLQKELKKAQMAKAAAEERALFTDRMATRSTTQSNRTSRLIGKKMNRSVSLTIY
Counter-ions that a name gives are not always drawn.
Answer each item with its documented IC50.

> print(dat)
                                   compound                       experimental.system  readout.label   result
1  O=c1c2cnc(Nc3ccc(N4CCNCC4)c(Cl)c3)nc2ccn1-c1c(Cl)cccc1Cl [Example 27]  Wee-1 kinase (Homo sapiens (Human), UniProt P30291)           IC50  < 10 nM
2  O=c1c2cnc(Nc3ccc(N4CCNCC4)cc3)nc2c(-c2cccnc2)cn1-c1c(Cl)cccc1Cl [Example 23]  Wee-1 kinase (Homo sapiens (Human), UniProt P30291)           IC50  < 10 nM
3  NCC#Cc1cn(-c2c(Cl)cccc2Cl)c(=O)c2cnc(Nc3ccc(N4CCOCC4)cc3)nc12 [Example 22]  Wee-1 kinase (Homo sapiens (Human), UniProt P30291)           IC50  < 10 nM
4  Cc1cc(Nc2ncc3c(=O)n(-c4c(Cl)cccc4Cl)cc(C#CCO)c3n2)ccc1N1CCNCC1 [Example 14]  Wee-1 kinase (Homo sapiens (Human), UniProt P30291)           IC50  < 10 nM

Give IC50 for each of the items listed below.
1. Cc1cc(Nc2ncc3c(=O)n(-c4ccccc4Cl)ccc3n2)ccc1N1CCNCC1 [Example 24]
2. O=c1c2cnc(Nc3ccc(N4CCNCC4)cc3)nc2c(Br)cn1-c1c(Cl)cccc1Cl [Example 9]
3. CC(C)N1CCN(c2ccc(Nc3ncc4c(=O)n(-c5c(Cl)cccc5Cl)ccc4n3)cc2)CC1 [Example 17]
4. Cc1cc(Nc2ncc3c(=O)n(-c4c(Cl)cccc4Cl)ccc3n2)ccc1N1CCNCC1 [Example 7]
5. O=c1c2cnc(Nc3ccc(N4CCNCC4)c(CO)c3)nc2ccn1-c1c(Cl)cccc1Cl [Example 18]
6. CC(=O)N1CCN(c2ccc(Nc3ncc4c(=O)n(-c5c(Cl)cccc5Cl)ccc4n3)cc2)CC1 [Example 5]

Result string:
< 10 nM
< 10 nM
10 to 200 nM
< 10 nM
< 10 nM
10 to 200 nM

Give IC50 for each of the items listed below.
1. CN(C)CCc1ccc(Nc2ncc3c(=O)n(-c4c(Cl)cccc4Cl)ccc3n2)cc1 [Example 11, HCl]
2. CN1CCC(c2ccc(Nc3ncc4c(=O)n(-c5c(Cl)cccc5Cl)ccc4n3)cc2)CC1 [Example 10, HCl]
3. CN1CCN(C(=O)c2ccc(Nc3ncc4c(=O)n(-c5c(Cl)cccc5Cl)ccc4n3)cc2)CC1 [Example 32]
4. O=c1c2cnc(Nc3ccc(N4CCNCC4)c(F)c3)nc2ccn1-c1c(Cl)cccc1Cl [Example 29]
5. O=c1c2cnc(Nc3ccc(N4CCN(CCO)CC4)cc3)nc2ccn1-c1c(Cl)cccc1Cl [Example 21]

Result string:
1. 10 to 200 nM
2. < 10 nM
3. 10 to 200 nM
4. < 10 nM
5. < 10 nM

----------
test: CLint estimates using human liver microsomes; type: in vitro ADME; conditions: pH 7.4, read-out: HLM activity (HLM CLint)
Where a name gives a salt, the structure may show the parent alone.
Answer each item with its documented microsomal CLint at 1 μM.

Give microsomal CLint at 1 μM for each of the items listed below.
1. Cc1cc(Nc2ncc3c(=O)n(-c4c(Cl)cccc4Cl)ccc3n2)ccc1N1CCNCC1
2. O=c1c2cnc(Nc3ccc(N4CCOCC4)cc3)nc2ccn1-c1c(Cl)cccc1Cl
3. CN1CCN(c2ccc(Nc3ncc4c(=O)n(-c5c(Cl)cccc5Cl)ccc4n3)cc2CO)CC1
4. CCN(CC)CCOc1ccc(Nc2ncc3c(=O)n(-c4c(Cl)cccc4Cl)ccc3n2)cc1
5. CN1CCC(c2ccc(Nc3ncc4c(=O)n(-c5c(Cl)cccc5Cl)ccc4n3)cc2)CC1 [Example 10, HCl]
6. O=c1c2cnc(Nc3cc(F)c(N4CCNCC4)c(F)c3)nc2ccn1-c1c(Cl)cccc1Cl
7. Cc1cc(Nc2ncc3c(=O)n(-c4ccccc4Cl)ccc3n2)ccc1N1CCNCC1
8. CC(C)N1CCN(c2ccc(Nc3ncc4c(=O)n(-c5c(Cl)cccc5Cl)ccc4n3)cc2)CC1

Result string:
1: ≤ 20 µL/min/mg; 2: > 20 µL/min/mg; 3: ≤ 20 µL/min/mg; 4: > 20 µL/min/mg; 5: ≤ 20 µL/min/mg; 6: ≤ 20 µL/min/mg; 7: ≤ 20 µL/min/mg; 8: > 20 µL/min/mg

Give microsomal CLint at 1 μM for each of the items listed below.
1. COc1cc(Nc2ncc3c(=O)n(-c4c(Cl)cccc4Cl)ccc3n2)ccc1N1CCN(C)CC1 [Example 12, HCl]
2. O=c1c2cnc(Nc3ccc(N4CCS(=O)(=O)CC4)cc3)nc2ccn1-c1c(Cl)cccc1Cl

Result string:
> 20 µL/min/mg
> 20 µL/min/mg

Attribution: patent US9714244B2
